- assay_remarks: Rat pharmacokinetics
- Assay type: in vivo
- condition_set: male Sprague-Dawley rats, plasma, route not stated in table (IV or oral gavage 10 mL/kg of 0.3 or 0.6 mg/mL)
Label 1 when Cmax is at or above 60 ng/mL; otherwise label 0.

Reference set, count: 3
compound	answer_label
C[C@]1(c2ccc(C#N)cc2F)Oc2cccc(N3CCN(Cc4nc5ccc(C(=O)O)cc5n4Cc4cncs4)[C@H]4C[C@H]43)c2O1	0
N#Cc1ccc(COc2cccc([C@@H]3CCN(Cc4nc5ccc(C(=O)O)cc5n4Cc4cncs4)[C@H]4C[C@@H]34)n2)c(F)c1 (single isomer, unassigned)	1
N#Cc1ccc(COc2cccc([C@H]3CCN(Cc4nc5ccc(C(=O)O)cc5n4Cc4cncs4)[C@@H]4C[C@H]34)n2)c(F)c1 (single isomer, unassigned)	1

From here, focus on the item given below.
Problem: Is it the case that N#Cc1ccc(COc2cccc(N3CCN(Cc4nc5ccc(C(=O)O)cc5n4Cc4cncs4)[C@@H]4C[C@@H]43)n2)c(F)c1 (single isomer, unassigned) has Cmax reaching or exceeding 60 ng/mL?
Solution: 0

---

- assay_remarks: Rat pharmacokinetics
- Format: in vivo
- Set-up: concentration or dose not given beside the values
- condition_set: male Sprague-Dawley rats, plasma, route not given
Consider the following compounds and their measured AUC readings.

compound	AUC
C[C@]1(c2ccc(C#N)cc2F)Oc2cccc(N3CCN(Cc4nc5ccc(C(=O)O)cc5n4Cc4cncs4)[C@@H]4C[C@@H]43)c2O1	109 ng·h/mL
N#Cc1ccc(COc2cccc([C@H]3CCN(Cc4nc5ccc(C(=O)O)cc5n4Cc4cncs4)[C@@H]4C[C@H]34)n2)c(F)c1 (single isomer, unassigned)	86.3 ng·h/mL
C[C@]1(c2ccc(C#N)cc2F)Oc2cccc(N3CCN(Cc4nc5ccc(C(=O)O)cc5n4Cc4cncs4)[C@H]4C[C@H]43)c2O1	20.7 ng·h/mL
N#Cc1ccc(COc2cccc([C@@H]3CCN(Cc4nc5ccc(C(=O)O)cc5n4Cc4cncs4)[C@@H]4C[C@@H]43)n2)c(F)c1 (single isomer, unassigned)	418 ng·h/mL

Problem: Entry `C[C@@]1(c2ccc(C#N)cc2F)Oc2cccc(N3CCN(Cc4nc5ccc(C(=O)O)cc5n4Cc4cncs4)[C@@H]4C[C@@H]43)c2O1` : reported AUC = ?
Solution: 15.8 ng·h/mL

Problem: Entry CC1(c2ccc(C#N)cc2F)Oc2cccc(C3CCN(Cc4nc5ccc(C(=O)O)cc5n4Cc4cncs4)CC3)c2O1 (stereo not drawn) : reported AUC = ?
Solution: 84.9 ng·h/mL

---

Consider the following molecules and their measured pEC50 readings.
- target_system: human GLP-1R receptor (Homo sapiens, UniProt P43220)
- Sequence (P43220 24-463): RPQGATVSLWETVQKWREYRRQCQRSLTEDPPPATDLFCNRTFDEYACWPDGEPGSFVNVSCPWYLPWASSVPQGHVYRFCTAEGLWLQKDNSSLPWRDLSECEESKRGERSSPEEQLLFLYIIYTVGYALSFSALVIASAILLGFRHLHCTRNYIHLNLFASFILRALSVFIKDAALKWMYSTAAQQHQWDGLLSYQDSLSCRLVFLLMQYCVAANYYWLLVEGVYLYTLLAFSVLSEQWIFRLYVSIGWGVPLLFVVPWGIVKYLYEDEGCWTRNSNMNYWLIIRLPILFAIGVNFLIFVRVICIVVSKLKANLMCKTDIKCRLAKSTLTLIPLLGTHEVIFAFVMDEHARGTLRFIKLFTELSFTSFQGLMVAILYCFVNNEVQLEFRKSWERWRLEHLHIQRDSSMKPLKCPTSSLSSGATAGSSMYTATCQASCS
- assay_remarks: GLP-1R low expression cell assay (cAMP TR-FRET, CHO-K1_hGLP-1Rlow_clone10)
- condition_set: CHO-K1_hGLP-1Rlow_clone10 cells, percent activation relative to control GLP-1 peptide
pEC50: −log10 of the molar value.

Problem: Entry N#Cc1ccc(COc2cccc(C3CCN(Cc4nc5ccc(C(=O)O)cc5n4Cc4cncs4)C4CC34)n2)c(F)c1 (centres unmarked) : reported pEC50 = ?
Solution: 7.30 to 8.30

Problem: Entry N#Cc1ccc(COc2cccc([C@@H]3CCN(Cc4nc5ccc(C(=O)O)cc5n4Cc4cncs4)[C@H]4C[C@@H]34)n2)c(F)c1 (single isomer, unassigned) : reported pEC50 = ?
Solution: 7.30 to 8.30

Problem: Entry `CCn1nncc1Cn1c(CN2CCN(c3cccc(OCc4ccc(C#N)cc4F)n3)[C@H]3C[C@H]32)nc2ccc(C(=O)O)cc21` : reported pEC50 = ?
Solution: > 8.30

Problem: Entry N#Cc1ccc(COc2cccc(N3CCN(Cc4nc5ccc(C(=O)O)cc5n4C[C@@H]4CCO4)[C@@H]4C[C@@H]43)n2)c(F)c1 (single isomer, unassigned) : reported pEC50 = ?
Solution: > 8.30

Problem: Entry CC1(c2ccc(C#N)cc2F)Oc2cccc(C3CCN(Cc4nc5ccc(C(=O)O)cc5n4Cc4cncs4)CC3)c2O1 (centres unmarked) : reported pEC50 = ?
Solution: > 8.30

---

- assay_remarks: Metabolic stability in hepatocytes
- Format: in vitro ADME
- condition_set: cryopreserved human hepatocytes (suspension), 1×10^6 cells/mL, 0-240 min, read-out: hHep t1/2
value_type: half-life at 1 μM (h)
Response body: numeric value in h, unit text excluded.

Problem: Entry N#Cc1ccc(COc2cccc(C3CCN(Cc4nc5ccc(C(=O)O)cc5n4C[C@@H]4CCO4)CC3)n2)c(F)c1 [Reference Compound B, reference compound] : reported half-life at 1 μM = ?
Solution: 2.6

---

- assay_remarks: Metabolic stability in hepatocytes
- Format: in vitro ADME
- condition_set: cryopreserved human hepatocytes (suspension), 1×10^6 cells/mL, intrinsic clearance, read-out: hHep CLint
Consider the following compounds and their measured CLint scaled at 1 μM readings.
Response body: numeric value in mL/min/kg, unit text excluded.

Consider the worked cases shown below.
compound	CLint scaled at 1 μM (mL/min/kg)
CCn1nncc1Cn1c(CN2CCN(c3cccc(OCc4ccc(C#N)cc4F)n3)[C@H]3C[C@H]32)nc2ccc(C(=O)O)cc21 [Compound 45]	6.46
N#Cc1ccc(COc2cccc([C@@H]3CCN(Cc4nc5ccc(C(=O)O)cc5n4Cc4cncs4)[C@@H]4C[C@@H]43)n2)c(F)c1 (single isomer, unassigned) [Compound 5]	7.46
N#Cc1ccc(COc2ccnc(N3CCN(Cc4nc5ccc(C(=O)O)cc5n4Cc4cncs4)[C@@H]4C[C@@H]43)n2)c(F)c1 [Compound 20]	6.4
N#Cc1ccc(COc2cccc(N3CCN(Cc4nc5ccc(C(=O)O)cc5n4C[C@@H]4CCO4)[C@@H]4C[C@@H]43)n2)c(F)c1 (single isomer, unassigned) [Compound 43]	7.09
N#Cc1ccc(COc2cccc(N3CCN(Cc4nc5ccc(C(=O)O)cc5n4C[C@@H]4CCO4)[C@H]4CC43)n2)c(F)c1 (single isomer, unassigned) [Compound 42]	5.01

Problem: Entry CC1(c2ccc(C#N)cc2F)Oc2cccc(N3CCN(Cc4nc5ccc(C(=O)O)cc5n4CC4(C#N)CC4)C4CC43)c2O1 (stereo not drawn) [Compound 40] : reported CLint scaled at 1 μM = ?
Solution: 5.86

Problem: Entry N#Cc1ccc(COc2cccc([C@H]3CCN(Cc4nc5ccc(C(=O)O)cc5n4Cc4cncs4)[C@@H]4C[C@H]34)n2)c(F)c1 (single isomer, unassigned) [Compound 4] : reported CLint scaled at 1 μM = ?
Solution: 14

Problem: Entry CC1(c2ccc(C#N)cc2F)Oc2cccc(C3CCN(Cc4nc5ccc(C(=O)O)cc5n4Cc4cncs4)CC3)c2O1 (stereo not drawn) [Compound 18] : reported CLint scaled at 1 μM = ?
Solution: 17.5

Problem: Entry N#Cc1ccc(COc2cccc(C3CCN(Cc4nc5ccc(C(=O)O)cc5n4C[C@@H]4CCO4)CC3)n2)c(F)c1 [Reference Compound B, reference compound] : reported CLint scaled at 1 μM = ?
Solution: 15.5

Problem: Entry CCn1nncc1Cn1c(CN2CCN(c3cccc(OCc4ccc(C#N)cc4F)n3)C3C[C@@H]32)nc2ccc(C(=O)O)cc21 (stereo partly drawn) [Compound 44] : reported CLint scaled at 1 μM = ?
Solution: 5.01

Problem: Entry N#Cc1ccc(COc2ccnc(N3CCN(Cc4nc5ccc(C(=O)O)cc5n4Cc4cncs4)[C@H]4C[C@H]43)n2)c(F)c1 [Compound 19] : reported CLint scaled at 1 μM = ?
Solution: 5.01

Problem: Entry N#Cc1ccc(COc2cccc([C@H]3CCN(Cc4nc5ccc(C(=O)O)cc5n4Cc4cncs4)[C@H]4C[C@@H]34)n2)c(F)c1 (single isomer, unassigned) [Compound 14] : reported CLint scaled at 1 μM = ?
Solution: 7.86

---

Consider the following compounds and their measured Cmax readings.
- assay_remarks: Rat pharmacokinetics
- Assay type: in vivo
- condition_set: male Sprague-Dawley rats, plasma, route not stated in table (IV or oral gavage 10 mL/kg of 0.3 or 0.6 mg/mL)
Response body: numeric value in ng/mL, unit text excluded.

Consider the worked cases shown below.
compound	unit_info	Cmax
CC1(c2ccc(C#N)cc2F)Oc2cccc(C3CCN(Cc4nc5ccc(C(=O)O)cc5n4Cc4cncs4)CC3)c2O1 (stereo not drawn)	ng/mL	89.5
C[C@@]1(c2ccc(C#N)cc2F)Oc2cccc(N3CCN(Cc4nc5ccc(C(=O)O)cc5n4Cc4cncs4)[C@@H]4C[C@@H]43)c2O1	ng/mL	20

Moving on to another compound below.
Problem: Entry CC1(c2ccc(C#N)cc2F)Oc2cccc(N3CCN(Cc4nc5ccc(C(=O)O)cc5n4CC4(C#N)CC4)C4CC43)c2O1 (stereo not drawn) : reported Cmax = ?
Solution: 28.3

---

Consider the following molecules and their measured CLint scaled at 1 μM readings.
- assay_remarks: Metabolic stability in hepatocytes
- Format: in vitro ADME
- condition_set: cryopreserved human hepatocytes (suspension), 1×10^6 cells/mL, intrinsic clearance, read-out: hHep CLint

Consider the worked cases shown below.
molecule	value_type	reported_measurement
N#Cc1ccc(COc2cccc(N3CCN(Cc4nc5ccc(C(=O)O)cc5n4Cc4cncs4)[C@@H]4C[C@@H]43)n2)c(F)c1 (single isomer, unassigned) [Compound 1]	CLint scaled at 1 μM	11.9 mL/min/kg
N#Cc1ccc(COc2cccc(N3CCN(Cc4nc5ccc(C(=O)O)cc5n4Cc4cncs4)[C@H]4C[C@H]43)n2)c(F)c1 (single isomer, unassigned) [Compound 2]	CLint scaled at 1 μM	5.01 mL/min/kg

Moving on to another molecule below.
Problem: Entry N#Cc1ccc(COc2cccc([C@@H]3CCN(Cc4nc5ccc(C(=O)O)cc5n4Cc4cncs4)[C@H]4C[C@@H]34)n2)c(F)c1 (single isomer, unassigned) [Compound 15] : reported CLint scaled at 1 μM = ?
Solution: 9.24 mL/min/kg

Where do these numbers come from? They come from patent US12410163B2.
